All figures here come from patent US20240317780A1.

Measurement Notes: Biodistribution of 18F-labeled SST2 ligands in AR42J tumor-bearing mice
Type: in vivo
Condition Context: female, CD1 nu/nu, mouse, kidneys, iv, total radioactivity, 1 h post injection, tail vein; read-out: Kidneys % ID/g ± SD
Experimental Endpoint: tissue uptake at 1 h (%ID/g)

molecule="C[C@@H](O)[C@H](NC(=O)C1CSSCC(NC(=O)C(Cc2ccccc2)NC(=O)CNC(=O)CNC(=O)[C@@H](CC(=O)O)NC(=O)C(CC(=O)O)NC(=O)[C@@H](CNC(=O)CN2CCN(CC(=O)O)CCN(CC(=O)O)CCN(CC(=O)O)CC2)NC(=O)C(CN)NC(=O)c2ccc([Si](F)(C(C)(C)C)C(C)(C)C)cc2)C(=O)N[C@@H](Cc2ccc(O)cc2)C(=O)NC(Cc2c[nH]c3ccccc23)C(=O)N[C@@H](CCCCN)C(=O)N[C@@H]([C@@H](C)O)C(=O)N1)C(=O)O (stereo partly shown) (natGa complex, metal not drawn) [[Ga]19]" experimental_endpoint="tissue uptake at 1 h" quantitative_result=131
